procedure.details: label from the status in PepcDB records
readout.label: protein production

{"input.sequence": "MATIGLDRLYYSKITEDANGEETYAQPSVLAKAITAELSVELVEAILYADDGAAEVVKDFNSGTLTLGVDDIGPMVAADLTGASTDDNGVLISASENVGTPVAVGFRAQRANGTYRYFWLYRVKFGLPATNLQTKADSITFSTPTIEGTVMRRNKLDGLGKHPWKAEVTEGDPGVSSTTITGWFTEVYEPVYTPEP", "readout.label": "protein production", "obs.value": "failed"}
{"input.sequence": "MEGAEEAGAEIAVDSKDLQQQSKAFDKLTDRVEDRQLDSSRVQSAMASIAASREADLNAKRLREKELASVKINPADVEFIVNELEIEKNVAERTLREHKGDAVAATRQLLSRYPL", "readout.label": "protein production", "obs.value": "failed"}
{"input.sequence": "MRPRPDAALAMSSGPPAARKPGVVQPALLNMSAWLRPEPGLTVVTPLVRALVLISAFSPQERWLGNGQLAQRTGLPPSTVSRIAQSLVHLGYLLHDGAERKYRLAPAVLGLGYAAIAHSAIQGLAGERMAAFARQHKVHVCLAARDRLDLVVLECRRSLECPVALPLHVGMRVGIAQSPMGWSMLAALPELERCYLLDNVERRMARDWSRLRRRVWEGMAQVGETGYCTSIGEWNPELGALATPVLLEGSSPFVLACIGTSQTMTRARVARELGPRLLAMREALQTEFNVIGH", "readout.label": "protein production", "obs.value": "failed"}
